test system: DMS-114; assay: NCI tumour cell line growth inhibition, 48 h
Activity calls are given as the source filed them. Rule as the data show it: active = GI50 up to about 1.1 µM and inactive = higher.
quantity: GI50

In the examples that follow, each entry is paired with its recorded GI50.
{"compound": "O=S(O)CCCSSCCCCSSCCCS(=O)O", "GI50": "> 100 µM (inactive)"}
{"compound": "O=C(O)C#CCO", "GI50": "> 100 µM (inactive)"}
{"compound": "C=C1C(=O)OC2(C)C3CCC(C3)C12 (stereo unspecified)", "GI50": "46.6 µM (inactive)"}
{"compound": "Cc1[nH]c2c(C)cccc2c1C1Cc2ccccc2N1 (stereo unspecified)", "GI50": "18.2 µM (inactive)"}
{"compound": "CCOC(=O)C(CCCNC(=O)OC(C)(C)C)N(Cc1ccc(OC)cc1OC)C(=O)CC(=O)CP(=O)(OCC)OCC (stereo unspecified)", "GI50": "21 µM (inactive)"}

Quick request: GI50 for each listed item, please.
1. N#CC(C(=N/NC(N)=S)/C(=N\NC(N)=S)C(C#N)c1ccccc1)c1ccccc1 (stereo unspecified)
2. N#CCCN(CCC#N)c1ccc(/C=N\c2nc(-c3ccccc3)cs2)cc1
3. CC1(C)OP23(NC(=O)OC2(C(F)(F)F)c2ccccc2O3)OC1(C)C (stereo unspecified)
4. O=[N+]([O-])c1cccc(C2=NN(c3ccccc3)C3c4ccccc4OCC23)c1 (stereo unspecified)
5. O=C(NN1C(=O)CS(=O)(=O)C1c1ccc(Cl)c(Cl)c1)c1ccncc1 (stereo unspecified)
6. CCCCCCCCCCCCCCCCP(=O)(OC)OC

stdout:
["> 10 µM (inactive)", "73.3 µM (inactive)", "> 100 µM (inactive)", "> 100 µM (inactive)", "61.2 µM (inactive)", "16.1 µM (inactive)"]

Provide the reported GI50 of each entry below, same order.
1. O=C(N/N=C1/C(=O)N(c2ccc(Cl)cc2Cl)C(=O)C(=O)C1c1nc2ccccc2o1)c1ccccc1O (stereo unspecified)
2. C[Si](C)(C)/C=C/CN1C(=O)CCC1=O
3. COc1ccc2c(=O)c(-c3cc(OC)c(OC)cc3OC)coc2c1
4. COc1ccc(N2C(=O)/C(=C/c3ccc(N(CCC#N)CCC#N)cc3C)N=C2c2cc([N+](=O)[O-])ccc2Cl)cc1
5. O=C(CSC(=S)N1CCOCC1)Nc1nc2c(s1)CCCC2

stdout:
26.4 µM (inactive)
> 100 µM (inactive)
3.02 µM (inactive)
3.32 µM (inactive)
30.1 µM (inactive)

* * *

tested on: MCF7; experiment: NCI tumour cell line growth inhibition, 48 h
Activity calls are given as the source filed them. Cut-off read from the data, not from the text of the source: active = GI50 up to about 1.1 µM and inactive = higher.
quantity: GI50

The cases that follow already have their GI50 on record.
{"compound": "C[C@]12CC[C@H]3[C@@H](CCC4=CC(=O)CC[C@@]43C)[C@@H]1CC[C@@H]2C(=O)COS(=O)(=O)c1ccc(Br)cc1", "tested_on": "MCF7", "GI50": "8.15 µM (inactive)"}
{"compound": "c1ccc([P+](CCCCCCCC[P+](c2ccccc2)(c2ccccc2)c2ccccc2)(c2ccccc2)c2ccccc2)cc1", "tested_on": "MCF7", "GI50": "4.48 µM (inactive)"}
{"compound": "CC(=O)Nn1c(Cc2ccc(Cl)cc2)nn(C)c1=O", "tested_on": "MCF7", "GI50": "> 100 µM (inactive)"}
{"compound": "COc1ccccc1/C=C/C1=NN(c2cccc(S(=O)(=O)O)c2)C2(C1)C(Cl)C(=O)N2c1nc2ccccc2s1 (configuration not stated)", "tested_on": "MCF7", "GI50": "40.7 µM (inactive)"}
{"compound": "O=C(c1ccc(Cl)cc1Cl)N(C(=O)N1CCCCC1)c1ccccc1", "tested_on": "MCF7", "GI50": "> 100 µM (inactive)"}
{"compound": "O=C1CC(NC(=O)C(F)(F)F)c2c(Br)sc(N3CCNCC3)c21 (configuration not stated)", "tested_on": "MCF7", "GI50": "> 100 µM (inactive)"}

Next, consider the following compound.
// GI50 (MCF7) for CN(C)CCNC(=O)c1cccc2ccc(-c3ccc(F)cc3)nc12 = 3.56 µM (inactive)

* * *

Give measured GI50 for each item. Keep answers brief.
test system: U-251; assay: NCI tumour cell line growth inhibition, 48 h
Activity calls are given as the source filed them. No stated cut-off is given here; in the data, active = GI50 up to about 1.1 µM and inactive = higher.

For orientation, consider the following solved cases.
{"molecule": "COc1cccc(-n2c(N)c(-c3nc4cc(C(F)(F)F)ccc4s3)c3ccc([N+](=O)[O-])cc3c2=O)c1", "tested_on": "U-251", "GI50": "> 100 µM (inactive)"}
{"molecule": "Cc1ccc2[nH]c3c(c(=O)n(C)c(=O)n3C)c2c1", "tested_on": "U-251", "GI50": "> 100 µM (inactive)"}

For every listed record, write down its GI50.
1. O=S(=O)(O)c1c(Cl)c(Cl)c(O)c2ncccc12
2. Nc1n[c-](N)[n+](=O)c(N)c1NCO
3. O=C(NN1C(=O)CS(=O)(=O)C1c1ccc(Cl)c(Cl)c1)c1ccncc1 (stereo unspecified)

stdout:
["10.8 µM (inactive)", "> 100 µM (inactive)", "> 100 µM (inactive)"]

Notebook: c1ccc(C(NC2=NCCO2)c2ccccc2)cc1 , GI50 read as > 10 µM (inactive)

* * *

test system: UACC-257; assay: NCI tumour cell line growth inhibition, 48 h
Calls of active or inactive are those of the source. No stated cut-off is given here; in the data, active = GI50 up to about 1.1 µM and inactive = higher.
quantity: GI50

{"compound": "CCOC(=O)[C@@H]1[C@@H]2NC(=O)N[C@@]1(C)Oc1ccccc12", "GI50": "> 100 µM (inactive)"}
{"compound": "O=c1/c(=C/c2ccc3c(c2)OCO3)sc2nnc(Cc3ccccc3)n12", "GI50": "13.1 µM (inactive)"}
{"compound": "CNC(=O)OCCN1c2ccccc2Sc2ccccc21", "GI50": "> 100 µM (inactive)"}

For every item in the list below, what is its measured GI50?
1. O=C(O)C#CCO
2. Cc1oncc1/N=C1\C=C(O)C(=O)c2ccccc21
3. O=C(CSC(=S)N1CCOCC1)Nc1nc2c(s1)CCCC2
4. Nc1nc(Cl)cc(Oc2ccc(Cl)cc2)n1

stdout:
1. > 100 µM (inactive)
2. 2.77 µM (inactive)
3. 45.7 µM (inactive)
4. 38.5 µM (inactive)

Please state GI50 for every compound in the list that follows.
1. N#CCc1n[nH]c2nc(SCc3ccccc3)nc(N3CCCCC3)c12
2. COC[C@@H](/N=C/C(C)(C)C)C(C)C
3. Cc1cc(C)n(C(=C(C(Cl)=C(Cl)Cl)[N+](=O)[O-])n2nc(C)cc2C)n1
4. O=C1c2cc(Cl)ccc2-n2cnnc2C2CSCN12 (configuration not stated)
5. CC(C)CC(=O)NC(NC(C)C)(C(F)(F)F)C(F)(F)F

stdout:
1: 20.8 µM (inactive); 2: 67.3 µM (inactive); 3: 3.24 µM (inactive); 4: > 100 µM (inactive); 5: > 100 µM (inactive)

* * *

Provide the recorded GI50 for the entries that follow.
tested on: KM12; assay: NCI tumour cell line growth inhibition, 48 h
Active and inactive are the calls of the source. No stated cut-off is given here; in the data, active = GI50 up to about 1.1 µM and inactive = higher.

Consider the reported GI50 for these compounds:
{"compound": "C[C@@H]1[C@@H](c2ccccc2)O[B-](c2ccccc2)(c2ccccc2)[N+]1(C)C", "test_result": "> 100 µM (inactive)"}
{"compound": "CC(C)(C)n1c(=O)[nH]c(=O)n1C(C)(C)C", "test_result": "> 100 µM (inactive)"}
{"compound": "NC(CSS(=O)(=O)c1ccccc1)C(=O)O (stereo not given)", "test_result": "> 10 µM (inactive)"}

// for each compound below, give its GI50
1. COC(=O)C(Cc1c[nH]c2ccccc12)NP(=O)(O)OCC1OC(n2ccc(N)nc2=O)C(O)C1O (stereo not given)
2. COc1ccc2c(=O)c(-c3cc(OC)c(OC)cc3OC)coc2c1
3. CSc1ccc2c(cc1=O)[C@@H](NC(=O)c1ccc(F)cc1)CCc1cc(O)c(O)c(O)c1-2
4. CN(CCCN(C)CCc1ccc(Cl)c(Cl)c1)CCCN1CCCC1
5. O=C(CSCC(=O)N/N=C\c1cc(Cl)cc(Cl)c1O)N/N=C\c1cc(Cl)cc(Cl)c1O
6. O=c1/c(=C/c2ccc3c(c2)OCO3)sc2nnc(Cc3ccccc3)n12
7. CN(N)/N=N/c1[nH]cnc1C(N)=O

stdout:
1. > 100 µM (inactive)
2. 2.74 µM (inactive)
3. > 100 µM (inactive)
4. 2.61 µM (inactive)
5. 6.1 µM (inactive)
6. > 100 µM (inactive)
7. 23.7 µM (inactive)

* * *

system: HOP-62; experiment: NCI tumour cell line growth inhibition, 48 h
Activity calls are given as the source filed them. Rule as the data show it: active = GI50 up to about 1.1 µM and inactive = higher.
In this exercise, the only acceptable responses are 1.0 (active), 0.0 (inactive)

Would you please look over these solved cases?
{"compound": "COc1cc2cc(C(=O)N3C[C@H](CCl)c4c3cc(O)c3ccccc43)[nH]c2c(OC)c1OC", "label_class": 1.0}
{"compound": "COC(=O)C1CCC(=O)N1C(c1cc(OC)c(OC)c(OC)c1)c1cccc2ccccc12 (stereo not given)", "label_class": 0.0}

stdin: Please share the test call associated with CCCCCCCCCCCCCCCCCCNc1ccn(C2OC(CO)C(OP(=O)(O)OCC3CCC(n4ccc(N)nc4=O)O3)C2O)c(=O)n1 (stereo not given) .
stdout: 0.0

stdin: # lookup: test call for O=C1CCCC2C(O)CCC[C@H]12 (stereo not given in full)
stdout: 0.0

stdin: In this assay, the call recorded for O=C1C(Br)=CC2(C=C1Br)CCNC1=C2C(=O)c2ccccc2C1=O was what?
stdout: 0.0
